system: HIV-1NL4-3 K103N-Y181C; assay: Luminescence Reduction Assay, luciferase reporter virus with resistance mutations in MT4 cells; type: cell-based; settings: Human immunodeficiency virus 1, MT4, read-out: EC50 (μM) MT4 cells HIV-1NL4-3 K103N-Y181C 2% FBS
For each entry below, report its EC50 value.
Numbers only, in µM.

Known EC50 results, listed for orientation:
Lookup: Complete the entry with EC50 for COc1cccc(-n2nc(-c3nccc4c3CNC4=O)cc2-c2ccnc(Cl)c2)c1
Found: 0.0692

Lookup: Return EC50 for the following molecule: O=C1NCc2c1ccnc2-c1cc(-c2cc(Br)cc(OC(F)F)c2)n(-c2ccnc(Cl)c2)n1
Found: 0.004

Please give EC50 for each item listed below.
1. O=C1NCc2c1ccnc2-c1cc(-c2cc(F)cc(Cl)c2)n(-c2cccc(Cl)c2)n1
2. O=C1NCc2c1cccc2-c1cc(-c2cncc(Cl)c2)n(-c2ccc(F)c(Cl)c2)n1
3. N#Cc1cccc(-c2cc(-c3nccc4c3CNC4=O)nn2-c2ccc(F)cc2)c1
4. O=C1NCc2c1ccnc2-c1cc(-c2ccc(F)c(OC(F)(F)F)c2)n(-c2cccc(Cl)c2)n1
5. O=C1NCc2c1ccnc2-c1cc(-c2cc(F)cc(OC(F)(F)F)c2)n(-c2ccc(F)c(Cl)c2)n1

Found:
1: 0.0208; 2: 0.0383; 3: 0.0317; 4: 0.2; 5: 0.0117

###

test system: HIV-1NL4-3 wildtype; experiment: Luminescence Reduction Assay, luciferase reporter virus in MT4 cells; assay type: cell-based; conditions: Human immunodeficiency virus 1, MT4, read-out: EC50 (μM) MT4 cells HIV-1NL4-3 wildtype 2% FBS
For each of the compounds below, state its EC50.
Numbers only, in µM.

A selection of reference data follows.
Lookup: Give the observed EC50 of O=C1NCc2c1cccc2-c1cc(-c2cc(F)cc(Cl)c2)n(-c2ccc(F)c(Cl)c2)n1 for HIV-1NL4-3 wildtype.
Found: 0.006

Lookup: # return EC50 for O=C1NCc2c1ccnc2-c1cc(-c2cc(F)cc(OC(F)F)c2)n(-c2cccnc2)n1 , test system: HIV-1NL4-3 wildtype
Found: 0.001

Take each entry in turn and give its EC50.
1. O=C1NCc2c1cccc2-c1cc(-c2cccc(Cl)c2)n(-c2cccc(C(F)(F)F)c2)n1
2. O=C1NCc2c1ccnc2-c1cc(-c2cc(Cl)cc(C(F)(F)F)c2)n(-c2ccc(F)c(Cl)c2)n1
3. N#Cc1cccc(-c2cc(-c3cccc4c3CNC4=O)nn2-c2ccc(F)cc2)c1

Found:
0.18
0.0075
0.0848

###

Would you kindly list EC50 for each of these molecules?
test system: HIV-1NL4-3 K103N-Y181C; assay: Luminescence Reduction Assay, luciferase reporter virus with resistance mutations in MT4 cells; type: cell-based; settings: Human immunodeficiency virus 1, MT4, read-out: EC50 (μM) MT4 cells HIV-1NL4-3 K103N-Y181C 2% FBS
One number for each entry, in µM.

See these solved cases before continuing.
Lookup: For HIV-1NL4-3 K103N-Y181C, give EC50 of the listed molecule: O=C1NCc2c1cccc2-c1cc(-c2cc(Cl)cc(OC(F)F)c2)n(-c2cccnc2)n1 [Example 18]
Found: 0.013

Lookup: # return EC50 for O=C1NCc2c1ccnc2-c1cc(-c2cncc(Cl)c2)n(-c2ccc(F)c(Cl)c2)n1 [Example 31] , test system: HIV-1NL4-3 K103N-Y181C
Found: 0.0024

Lookup: Report EC50 under test system HIV-1NL4-3 K103N-Y181C for O=C1NCc2c1ccnc2-c1cc(-c2cc(Cl)cc(OC(F)(F)F)c2)n(-c2cccnc2)n1 [Example 10] .
Found: 0.0027

Lookup: Given Cc1nc2c(c(-c3cc(-c4cc(Cl)cc(OC(F)(F)F)c4)n(-c4cccnc4)n3)n1)CNC2=O [Example 46] , report its EC50 on HIV-1NL4-3 K103N-Y181C.
Found: 0.0004

Lookup: Enter recorded EC50 with HIV-1NL4-3 K103N-Y181C for COc1cccc(-n2nc(-c3cccc4c3CNC4=O)cc2-c2ccnc(Cl)c2)c1 [Example 40] here.
Found: 0.499

Lookup: Print HIV-1NL4-3 K103N-Y181C EC50 for Cc1cc(F)cc(-c2cc(-c3nccc4c3CNC4=O)nn2-c2ccc(F)c(Cl)c2)c1 [Example 22] .
Found: 0.0077

Lookup: Write down the reported EC50 (system: HIV-1NL4-3 K103N-Y181C) of O=C1NCc2c1cccc2-c1cc(-c2cc(F)cc(OC(F)(F)F)c2)n(-c2cccnc2)n1 [Example 7]
Found: 0.0206

***
Lookup: # lookup: HIV-1NL4-3 K103N-Y181C EC50, key = O=C1NCc2c1cccc2-c1cc(-c2cc(F)cc(Cl)c2)n(-c2cccnc2)n1 [Example 4]
Found: 0.042
